MEASURED TARGET: SIRT1 (Homo sapiens)
Sequence (Q96EB6 whole entry): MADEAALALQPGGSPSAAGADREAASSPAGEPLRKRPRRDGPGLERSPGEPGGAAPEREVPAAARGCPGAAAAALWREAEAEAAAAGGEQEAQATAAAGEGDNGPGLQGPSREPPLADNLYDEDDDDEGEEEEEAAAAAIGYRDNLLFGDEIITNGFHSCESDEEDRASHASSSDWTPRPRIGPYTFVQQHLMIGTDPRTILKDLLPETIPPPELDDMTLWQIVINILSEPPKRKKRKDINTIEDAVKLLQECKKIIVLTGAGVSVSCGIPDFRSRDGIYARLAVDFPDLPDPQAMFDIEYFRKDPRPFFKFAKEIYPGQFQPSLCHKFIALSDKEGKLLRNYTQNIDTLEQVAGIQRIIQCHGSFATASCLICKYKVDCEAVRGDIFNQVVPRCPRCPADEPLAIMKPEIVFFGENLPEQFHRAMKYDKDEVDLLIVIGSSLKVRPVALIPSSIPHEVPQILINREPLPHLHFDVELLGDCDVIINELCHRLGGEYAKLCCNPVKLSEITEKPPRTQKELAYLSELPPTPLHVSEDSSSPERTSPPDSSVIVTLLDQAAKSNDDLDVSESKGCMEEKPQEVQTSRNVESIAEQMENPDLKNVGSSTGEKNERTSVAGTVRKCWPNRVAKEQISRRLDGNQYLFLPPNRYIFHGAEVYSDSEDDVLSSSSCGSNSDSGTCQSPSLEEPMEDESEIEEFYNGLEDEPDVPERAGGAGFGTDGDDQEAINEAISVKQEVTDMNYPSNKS
PROTOCOL DETAILS: Mass spectrometry based assay to identify modulators of SIRT1 activity (deacetylation of p53-based acetylated peptide substrate)
Format: biochemical
REPORTED CONDITIONS: 10 nM SIRT1, 0.5 μM peptide substrate, 120 μM βNAD+, 25 minutes at 25° C.
QUANTITY MEASURED: FOLD ACT. (percent maximum fold activation)

| COMPOUND | REPORTED MEASUREMENT |
| --- | --- |
| O=C(Nc1ccccc1-c1nc2cccnc2s1)c1cc(NC[C@@H](O)CO)nc(-c2ccccc2)n1 [Compound 106] | A (Fold activation≧300%) |
| COCCN(C)c1cc(C(=O)Nc2ccccc2-c2nc3cccnc3s2)nc(-c2ccccc2)n1 [Compound 47] | A (Fold activation≧300%) |
| O=C(Nc1ccccc1-c1nc2ccncc2s1)c1cc(NCc2ccccn2)nc(-c2ccccc2)n1 [Compound 57] | A (Fold activation≧300%) |
